- Test system: RIVA
- experimentSummary: growth inhibition by drug plus 177Lu-lilotomab satetraxetan (1 - RLU/untreated control) (fraction); higher = stronger inhibition
- reportedConditions: 100 nM; time (day): 6; 177Lu-lilotomab satetraxetan 0.5 ug/ml
readoutLabel: growth inhibition by drug plus 177Lu-lilotomab satetraxetan
API note: the answer field is a bare number with no unit suffix.

Please report the recorded growth inhibition by drug plus 177Lu-lilotomab satetraxetan for Cn1cc(C2=C(c3cn(C4CCN(Cc5ccccn5)CC4)c4ccccc34)C(=O)NC2=O)c2ccccc21 .
0.436

Record request: growth inhibition by drug plus 177Lu-lilotomab satetraxetan value, item Cc1cc2c(C(C)C)c(O)c(O)c(C=O)c2c(O)c1-c1c(C)cc2c(C(C)C)c(O)c(O)c(C=O)c2c1O [Gossypol]
0.364

Which growth inhibition by drug plus 177Lu-lilotomab satetraxetan value is on record for N[C@@H](Cc1ccc(N(CCCl)CCCl)cc1)C(=O)O [Melphalan] ?
0.494

Reported growth inhibition by drug plus 177Lu-lilotomab satetraxetan for N.N.[Cl][Pt][Cl] [Cisplatin] : what is it?
0.57

Given the entry CCC1(c2ccc(N)cc2)CCC(=O)NC1=O (stereo unspecified) [Aminoglutethimide (Cytadren)] , report its measured growth inhibition by drug plus 177Lu-lilotomab satetraxetan.
0.408

I have this compound here, CC(C)[C@]12O[C@H]1[C@@H]1O[C@]13[C@]1(O[C@H]1C[C@H]1C4=C(CC[C@@]13C)C(=O)OC4)[C@@H]2O [Triptolide] , and I need its recorded growth inhibition by drug plus 177Lu-lilotomab satetraxetan.
0.984

Fill blank: measured growth inhibition by drug plus 177Lu-lilotomab satetraxetan of the compound Cc1ccccc1-n1c(Cn2cnc3c(N)ncnc32)nc2cccc(C)c2c1=O is ____.
0.479

What does the record list as growth inhibition by drug plus 177Lu-lilotomab satetraxetan for CN(C)CCN(C)CCc1ccc(Cl)c(Cl)c1 ?
0.211

I would be grateful if you could share the reported growth inhibition by drug plus 177Lu-lilotomab satetraxetan for O=P1(N(CCCl)CCCl)NCCCO1 (stereo unspecified) [Cyclophosphamide monohydrate] .
0.394

Find the recorded growth inhibition by drug plus 177Lu-lilotomab satetraxetan belonging to CC1=C2C[C@H]3[C@@H](CC=C4C[C@@H](O)CC[C@@]43C)[C@@H]2CC[C@]12O[C@@H]1C[C@H](C)CN[C@H]1[C@H]2C [Cyclopamine] and report it.
0.53

Look up growth inhibition by drug plus 177Lu-lilotomab satetraxetan: CC(O)(CS(=O)(=O)c1ccc(F)cc1)C(=O)Nc1ccc(C#N)c(C(F)(F)F)c1 (stereo unspecified) [Bicalutamide (Casodex)]
0.432

* * *

- Test system: U-2932
- experimentSummary: growth inhibition by drug alone (1 - RLU/untreated control) (fraction); higher = stronger inhibition
- reportedConditions: 1000 nM; time (day): 3; 177Lu-lilotomab satetraxetan 0 ug/ml
Give measured growth inhibition by drug alone for each item. Keep answers brief.
Answer using only a numeral; do not append any unit.

// growth inhibition by drug alone lookup, key: CC[C@@H](C(=O)[C@@H](C)[C@@H](O)[C@H](C)[C@@H]1O[C@@H]([C@@H](CC)C(=O)O)CC[C@@H]1C)[C@H]1O[C@]2(C=C[C@@H](O)[C@]3(CC[C@@](C)([C@H]4CC[C@](O)(CC)[C@H](C)O4)O3)O2)[C@H](C)C[C@@H]1C [Salinomycin (Procoxacin)]
0.311

Fill in the blank: the reported growth inhibition by drug alone of O=C(Oc1ccc([N+](=O)[O-])cc1)N1CCC(C(O)(c2ccc3c(c2)OCO3)c2ccc3c(c2)OCO3)CC1 is ____.
-0.0233

I'd like to know its growth inhibition by drug alone. The compound in question is CC1=C2C[C@H]3[C@@H](CC=C4C[C@@H](O)CC[C@@]43C)[C@@H]2CC[C@]12O[C@@H]1C[C@H](C)CN[C@H]1[C@H]2C [Cyclopamine]
0.00899

Endpoint output: growth inhibition by drug alone of CC(O)(CS(=O)(=O)c1ccc(F)cc1)C(=O)Nc1ccc(C#N)c(C(F)(F)F)c1 (centres undefined) [Bicalutamide (Casodex)] . Value?
-0.0505

Can you share its growth inhibition by drug alone? I mean this compound: CC(C)[C@]12O[C@H]1[C@@H]1O[C@]13[C@]1(O[C@H]1C[C@H]1C4=C(CC[C@@]13C)C(=O)OC4)[C@@H]2O [Triptolide]
0.959

Could you share which growth inhibition by drug alone value was measured for C[C@]12CCC(=O)C(O)=C1CC[C@@H]1[C@@H]2CC[C@]2(C)C(=O)CC[C@@H]12 [Formestane] ?
-0.0617

I'd like to know its growth inhibition by drug alone. The compound in question is CCC1(c2ccc(N)cc2)CCC(=O)NC1=O (centres undefined) [Aminoglutethimide (Cytadren)]
-0.0187

So what does the record say about growth inhibition by drug alone for Cn1cc(C2=C(c3cn(C4CCN(Cc5ccccn5)CC4)c4ccccc34)C(=O)NC2=O)c2ccccc21 ?
-0.144

Look at this compound and give its reported growth inhibition by drug alone. N[C@@H](Cc1ccc(N(CCCl)CCCl)cc1)C(=O)O [Melphalan]
-0.0212

* * *

- Test system: RIVA
- experimentSummary: growth inhibition by drug alone (1 - RLU/untreated control) (fraction); higher = stronger inhibition
- reportedConditions: 100 nM; time (day): 5; 177Lu-lilotomab satetraxetan 0 ug/ml
Where growth inhibition by drug alone equals or exceeds -0.2, the correct label is Met; where it does not, the label is Not met.

Would you say CC(O)(CS(=O)(=O)c1ccc(F)cc1)C(=O)Nc1ccc(C#N)c(C(F)(F)F)c1 (stereo not given) [Bicalutamide (Casodex)] shows growth inhibition by drug alone at minimum -0.2?
Met

hey, is growth inhibition by drug alone for this one >= -0.2? Cc1cc2c(C(C)C)c(O)c(O)c(C=O)c2c(O)c1-c1c(C)cc2c(C(C)C)c(O)c(O)c(C=O)c2c1O
Met

Reported growth inhibition by drug alone at or above -0.2? CCC1(c2ccc(N)cc2)CCC(=O)NC1=O (stereo not given) [Aminoglutethimide (Cytadren)]
Not met

API: above_or_equal(metric=growth inhibition by drug alone, cutoff=-0.2) for item N[C@@H](Cc1ccc(N(CCCl)CCCl)cc1)C(=O)O
Met

Does C[C@]12CCC(=O)C(O)=C1CC[C@@H]1[C@@H]2CC[C@]2(C)C(=O)CC[C@@H]12 have a reported growth inhibition by drug alone of at least -0.2?
Not met

Check if growth inhibition by drug alone >= -0.2 (inclusive). Item: CC[C@@H](C(=O)[C@@H](C)[C@@H](O)[C@H](C)[C@@H]1O[C@@H]([C@@H](CC)C(=O)O)CC[C@@H]1C)[C@H]1O[C@]2(C=C[C@@H](O)[C@]3(CC[C@@](C)([C@H]4CC[C@](O)(CC)[C@H](C)O4)O3)O2)[C@H](C)C[C@@H]1C
Met

Hello, I need to know if O=C(O)c1nn(Cc2ccc(Cl)cc2Cl)c2ccccc12 has measured growth inhibition by drug alone not below -0.2. Thanks!
Not met

Hi, just wondering whether Cc1ccccc1-n1c(Cn2cnc3c(N)ncnc32)nc2cccc(C)c2c1=O shows growth inhibition by drug alone of -0.2 or higher.
Met

For this molecule, is measured growth inhibition by drug alone -0.2 or higher? CC(=O)Nc1ccc(OC[C@](C)(O)C(=O)Nc2ccc([N+](=O)[O-])c(C(F)(F)F)c2)cc1
Not met

Reported growth inhibition by drug alone at or above -0.2? O=C(Oc1ccc([N+](=O)[O-])cc1)N1CCC(C(O)(c2ccc3c(c2)OCO3)c2ccc3c(c2)OCO3)CC1
Met

* * *

- Test system: RIVA
- experimentSummary: growth inhibition by drug alone (1 - RLU/untreated control) (fraction); higher = stronger inhibition
- reportedConditions: 10 nM; time (day): 5; 177Lu-lilotomab satetraxetan 0 ug/ml
readoutLabel: growth inhibition by drug alone

API: value(readout= growth inhibition by drug alone, system= RIVA, query= N[C@@H](Cc1ccc(N(CCCl)CCCl)cc1)C(=O)O )
-0.0866

Any idea what growth inhibition by drug alone came out for C[C@]12CCC(=O)C(O)=C1CC[C@@H]1[C@@H]2CC[C@]2(C)C(=O)CC[C@@H]12 on RIVA?
-0.286

Field: growth inhibition by drug alone (RIVA). Entry: O=P1(N(CCCl)CCCl)NCCCO1 (stereo not given) [Cyclophosphamide monohydrate]
-0.227

Test system RIVA; read-out growth inhibition by drug alone; what value for CC1=C2C[C@H]3[C@@H](CC=C4C[C@@H](O)CC[C@@]43C)[C@@H]2CC[C@]12O[C@@H]1C[C@H](C)CN[C@H]1[C@H]2C ?
-0.0438

Tell me reported growth inhibition by drug alone for CN(C)CCN(C)CCc1ccc(Cl)c(Cl)c1 , tested with RIVA.
-0.338

* * *

- Tested on: U-2932
- experimentSummary: growth inhibition by drug plus 177Lu-lilotomab satetraxetan (1 - RLU/untreated control) (fraction); higher = stronger inhibition
- reportedConditions: 1000 nM; time (day): 3; 177Lu-lilotomab satetraxetan 1 ug/ml
readoutLabel: growth inhibition by drug plus 177Lu-lilotomab satetraxetan

Param readout = growth inhibition by drug plus 177Lu-lilotomab satetraxetan; param system = U-2932; param query = N[C@@H](Cc1ccc(N(CCCl)CCCl)cc1)C(=O)O ; response: value
0.00364

Item: CC[C@@H](C(=O)[C@@H](C)[C@@H](O)[C@H](C)[C@@H]1O[C@@H]([C@@H](CC)C(=O)O)CC[C@@H]1C)[C@H]1O[C@]2(C=C[C@@H](O)[C@]3(CC[C@@](C)([C@H]4CC[C@](O)(CC)[C@H](C)O4)O3)O2)[C@H](C)C[C@@H]1C Test system: U-2932 Read-out: growth inhibition by drug plus 177Lu-lilotomab satetraxetan Value: ?
0.381

Record CC(O)(CS(=O)(=O)c1ccc(F)cc1)C(=O)Nc1ccc(C#N)c(C(F)(F)F)c1 (stereo unspecified) [Bicalutamide (Casodex)] : what is its growth inhibition by drug plus 177Lu-lilotomab satetraxetan with U-2932?
-0.0729

growth inhibition by drug plus 177Lu-lilotomab satetraxetan of O=C(O)c1nn(Cc2ccc(Cl)cc2Cl)c2ccccc12 on U-2932?
0.0882

Field: growth inhibition by drug plus 177Lu-lilotomab satetraxetan (U-2932). Entry: CC(C)[C@]12O[C@H]1[C@@H]1O[C@]13[C@]1(O[C@H]1C[C@H]1C4=C(CC[C@@]13C)C(=O)OC4)[C@@H]2O [Triptolide]
0.965

Reported growth inhibition by drug plus 177Lu-lilotomab satetraxetan for U-2932, given C=C1C[C@@H]2[C@H](CC[C@]3(C)C(=O)CC[C@@H]23)[C@@]2(C)C=CC(=O)C=C12 ?
-0.0113

Origin of measurements: the supplement of paper PMC6897291
